Measured melting point by item

Requested field: melting point. Item: `O=C(NCCCCCCNC(=O)c1ccc(OC(F)(F)F)cc1)c1ccc(OC(F)(F)F)cc1` 179 to 180 °C

###

Measured melting point by item

As a guide, the following entries are already answered.
O=[N+]([O-])c1ccc(N2CCN(Cc3ccccc3)CC2)cc1CS(=O)(=O)c1ccccc1 : 145 to 146 °C
C[C@@H]1Cc2cc3c(cc2C(c2ccc(Cl)cc2)=NN1C1=NCCS1)OCO3 : 216 to 219 °C
Nc1nnc(SCC(CS(=O)(=O)c2ccc(-c3ccc(Cl)cc3)cc2)C(=O)O)s1 (stereo not given) : 184 to 186 °C

Requested field: melting point. Item: COc1ccc(C2(C#N)CCC(C(=O)O)CC2)c2c1oc1ccccc12 (stereo not given) 194 to 196 °C

Requested field: melting point. Item: `COC(=O)c1ccc(S(C)(=O)=O)cc1N` 98.3 to 98.5 °C

Requested field: melting point. Item: COC(=O)C1=C(C)NC(C)=C(C(=O)OCCN(C)Cc2ccccc2)C1c1cc([N+](=O)[O-])ccn1 (stereo not given) 163 °C

Requested field: melting point. Item: `CS(=O)(=O)c1ccc([C@@H](CC2CCCC2)C(=O)Nc2cnc(C(CO)CO)cn2)cc1Cl` 110 to 120 °C

Requested field: melting point. Item: `CC(=O)Oc1ccccc1C(=O)Nc1ccc(-n2nc(C(F)(F)F)cc2C(F)(F)F)cc1` 159 to 161 °C

###

measurementName: melting point

O=P(O)(O)Cc1ccccc1C(F)(F)F : 190 to 192 °C
CC(C)N(C=Nc1ncc(Oc2ccc(Cl)cc2)c(Cl)n1)C(C)C : 135 to 136 °C
O=c1[nH]c2cc(-c3ccncc3)ccc2c(=O)o1 : 265 to 267 °C
Cc1c(C)c2c(c(C)c1NC(=O)CC(C)(C)C)C(c1ccc(C(C)O)cc1)CO2 (configuration not stated) : 144 to 145 °C
CCCCCCCCCCCC1CNc2cc(C(=O)O)ccc21 (racemic) : 107 to 111 °C
CC(C)CN1C(=O)C(NC(=O)c2cc3ccccc3[nH]2)N=C(N2CCCCCC2)c2ccccc21 (single isomer, unassigned; (-)) : 240 to 241 °C
Cc1cccc2c1nc(COc1ccc(Cl)cc1)n2CCC(C)C(=O)O (configuration not stated) : 149 to 151 °C
CCOC(=O)[C@H](CCc1ccccc1)N(C(=O)OCC(Cl)(Cl)Cl)[C@@H](C)C(=O)O : 73 to 75 °C

Requested field: melting point. Item: `CC(=O)COc1ccc(/C=C/C(=O)O)c(Oc2ncc(C(F)(F)F)cc2Cl)c1` 179 to 180 °C

Requested field: melting point. Item: Cc1cc(O)c(S(=O)Cc2ccc(Cl)cc2)c(=O)o1 (configuration not stated) 150 to 151 °C

Requested field: melting point. Item: CCCCCCCCCCCCCCCC(=O)NC(C(=O)OC)C(O)CCCCCCCCCCCCCCC (configuration not stated) 80 °C

Requested field: melting point. Item: `O=c1nc(-c2ccc3c(c2)OCO3)c2cc3c(cc2n1CC1CC1)OCO3` 255 to 260 °C

###

Measured melting point by item

As a guide, the following entries are already answered.
O=C(N1CCCC1)N1Cc2c(C3=NCCO3)ncn2-c2ccccc21 : 217 to 220 °C
Cc1cc(OC2SCC(O)C(O)C2O)cc(C)c1-c1ccncc1 (centres undefined) : 106 to 107 °C
CC(C(=O)O)c1ccc2c(c1)oc1ccc(Cl)cc12 (single isomer, unassigned; (+)) : 155 to 157 °C
CCOC(=O)c1ncc2[nH]c3cccc(O)c3c2c1COC : 179 to 181 °C
CSC[C@H](NC(C)=O)C(=O)N(C)N : 156 to 157 °C
CCOC(=O)c1cnc2c(cnn2CC)c1O : 85 to 87 °C
CCCC(O)c1cc(C(=O)OC)c(NC(C)=O)cc1C(F)(F)F (centres undefined) : 97 to 101 °C
CCOC(=O)CCCCOc1ccc(C(=N)NC(=O)OCc2ccccc2)cc1 : 88 to 90 °C

Field: next molecule
Requested field: melting point. Item: COC(=O)C1=C(C)NC(C)=C(C(=O)O)C1c1ccccc1C(F)(F)F (single isomer, unassigned; (+)) 109 °C

###

Measured melting point by item

Cc1ccccc1OCC1CO1 (centres undefined) : 114 to 116 °C

Requested field: melting point. Item: `CCCCCCCCCCNC(=O)N[C@H]1CCCNC(=O)C1` 97 to 98 °C

Requested field: melting point. Item: `Cc1noc(NS(=O)(=O)c2nccs2)c1Br` 175 to 177 °C

Requested field: melting point. Item: `CCOCc1nc2c(N)nc(C)c(C)c2n1N(C)C` 170 to 171 °C

Requested field: melting point. Item: `Cc1cc(Oc2ccsc2C(F)(F)F)nc(-c2ccc(C(F)(F)F)cc2)c1` 52.5 to 55.5 °C

Requested field: melting point. Item: CCS(=O)(=O)NC(C(=O)NCCc1ccc(OC)c(OC)c1)c1ccc(Cl)cc1 (centres undefined) 136 to 138 °C

###

Measured melting point by item

As a guide, the following entries are already answered.
CCOC(=O)c1cn2c(C)csc2n1 : 117 to 119 °C
CC(=O)NNC1=Nc2ccc(Cl)cc2C(c2c(F)cccc2F)=NC1 : 274 to 277 °C
CC(=O)NC(=O)C(Cl)c1ccccc1 (stereo not given) : 101 to 102 °C
O=C(N1CC2CC(C1)c1ccccc12)C(F)(F)F : 67 to 68 °C
COc1cc(C(=O)N2Cc3ccc(C(=O)C(Cl)(Cl)Cl)n3Cc3ccccc32)ccc1-c1ccccc1C : 221 to 222 °C

Field: next molecule
Requested field: melting point. Item: `COc1ccc(Cl)cc1CCC(=O)O` 91 to 92 °C

###

Measured melting point by item

As a guide, the following entries are already answered.
Cc1cc([N+](=O)[O-])cc2c1S(=O)C=N2 (centres undefined) : > 250 °C
N#Cc1nn(-c2c(Cl)cc(OC(F)(F)F)cc2Cl)cc1C(Cl)=C(Cl)Br : 143 to 144 °C
COc1cccc2c1CCC1C(C)=C(O[Si](C)(C)C)CCC21C (centres undefined) : 79 °C

Requested field: melting point. Item: `Fc1ccc(-c2nc3occn3c2-c2ccnc(N[C@H]3CN4CCC3CC4)n2)cc1` 217 to 218 °C

###

measurementName: melting point

c1ccc2c(C3CCC4(CC3)OCCO4)c[nH]c2c1 : 163 to 165 °C
Oc1nc(C2CC2)nc2c1SCCC2 : 249 to 250 °C
CCON1CCC(C#N)(NC(=O)Cc2c(C)cc(C)cc2C)CC1 : 194 to 195 °C

Requested field: melting point. Item: `CS(=O)(=O)c1ccc(-c2cnn(-c3ccc(C(F)(F)F)cc3)c(=O)c2-c2ccc(F)cc2)cc1` 171 to 173 °C

Requested field: melting point. Item: `Cc1ccc(Cc2c(C(F)(F)F)[nH][nH]c2=O)cc1` 150 to 152 °C

###

measurementName: melting point

As a guide, the following entries are already answered.
CC(C)(C)c1ccccc1N1CCN(C(=O)c2ccccc2)CC1 : 104 to 106 °C
C=CCc1cc(O)c(CC=C)c(C=NO)c1O : 241 to 243 °C
N#CCC1(c2onc(-c3ccc(O)cc3)c2-c2ccccc2)CC1 : 189 to 190 °C

Requested field: melting point. Item: `CCC(CC)Nc1c(Br)c(CBr)nc2c1nnn2-c1c(C)cc(C)cc1C` 115 to 117 °C

Requested field: melting point. Item: `Cc1c2c(c(C)n1-c1ccccc1)C(C)(C)OC2(C)C` 113 to 116 °C

Requested field: melting point. Item: `CCCCCCCC(=O)OCCc1c(-c2ccccc2)nc(N)n2ncnc12` 89 to 91 °C

Requested field: melting point. Item: CCOC(=O)CCC(Oc1cc(OCc2ccsc2)ccc1C(N)=S)c1ccccc1C (racemic) 134 to 135 °C

Requested field: melting point. Item: `Cc1ccc(Cl)cc1NC(=S)Nc1nc(C)c(C)s1` 188 to 189 °C

###

Measured melting point by item

As a guide, the following entries are already answered.
C[C@@H](CCC(=O)N[C@@H](Cc1ccccc1)C(=O)CSCc1ccco1)CNC(=O)COc1ccccc1 : 91 to 95 °C
CC12CCC(O)CC1CCC1C2CCC2(C)C(C=NNC(N)=O)CCC12O (centres undefined) : 222 to 226 °C
Cn1c(C(F)(F)F)cc(=O)n(-c2ccc(OCc3ccc(Cl)cc3)cc2F)c1=O : 134 to 135 °C

Field: next molecule
Requested field: melting point. Item: CC(C)(C)c1nnc(-c2nn(-c3ccc(F)cc3F)c3c2C2CCC3C2)o1 (centres undefined) 108 to 110 °C
